Test: Cytotoxicity against mouse RAW264.7 cells assessed as cell viability at 5 uM measured after 24 hrs incubation by MTT assay relative to control
Type: toxicity, cell-based
Settings: read-out: Activity
Readout Type: viability at 24 h, 5 µM (%)
Your answer should be a plain number; it is taken to be in %.

Here are 5 compounds together with their reported answers.
# Compound, viability at 24 h, 5 µM [%]
measured = [
    ("C[C@]12CC[C@H]3[C@@H](CC=C4C[C@@H](O)CC[C@@]43C)[C@@H]1CC[C@@H]2C1=NN(C2=NC(=O)CS2)C(c2ccc(Cl)cc2)C1 (stereo partly specified)", 85.1),
    ("COc1ccc(C2CC([C@H]3CC[C@H]4[C@@H]5CC=C6C[C@@H](O)CC[C@]6(C)[C@H]5CC[C@]34C)=NN2C2=NC(=O)CS2)cc1 (stereo partly specified)", 95.9),
    ("C[C@@H]1C[C@H]2[C@@H]3CCC4=CC(=O)C=C[C@]4(C)[C@@]3(F)[C@@H](O)C[C@]2(C)[C@@]1(O)C(=O)CO", 92),
    ("CCc1ccc(C2CC([C@H]3CC[C@H]4[C@@H]5CC=C6C[C@@H](O)CC[C@]6(C)[C@H]5CC[C@]34C)=NN2C2=NC(=O)CS2)cc1 (stereo partly specified)", 82.8),
    ("C[C@]12CC[C@H]3[C@@H](CC=C4C[C@@H](O)CC[C@@]43C)[C@@H]1CC[C@@H]2C1=NN(C2=NC(=O)CS2)C(c2ccc(F)cc2)C1 (stereo partly specified)", 90.9),
]

Now consider the entry below.
Q: Fill in the blank: the reported viability at 24 h, 5 µM of C[C@]12CC[C@H]3[C@@H](CC=C4C[C@@H](O)CC[C@@]43C)[C@@H]1CC[C@@H]2C1=NN(C2=NC(=O)CS2)C(c2ccccc2Cl)C1 (stereo partly specified) is ____.
Ans: 81.1
